- measurement-description: AP1 Signaling Pathway (AID 357);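 further: ME-180 reporter cells stimulated with EGF at its EC50 level; on the % scale 0 is the no-effect control and ±100 the full control effect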
- experimental-conditions: ME-180 (cervical carcinoma) AP-1-bla reporter, EGF-induced, beta-lactamase ratio, 5 h; at 7.69 µM (top of the series) unless noted
Inconclusive results are not listed. Active and inactive are the calls of the source. The call rests on the fitted dose curve; in most records, active means well fitted curve in either direction with a large enough effect (not every such curve was filed as active); inconclusive means small, poorly fitted or top-dose-only effect, or another doubt; inactive means flat fitted curve, though single readings scatter.
// reported activity change, negative = inhibition per item

C[C@]12CN(CC[N+](C)(C)C)C[C@]1(C)[C@@H]1CC[C@@H]2O1 ... 12.6% (inactive)
CN1C[C@H](C(=O)N[C@@]2(C)O[C@@]3(O)[C@H]4CCCN4C(=O)[C@@H](Cc4ccccc4)N3C2=O)C=C2c3cccc4[nH]cc(c34)C[C@@H]21 ... 2.32% (inactive)
CCc1ccc(CCN2CCCCC2)nc1 ... 15.5% (inactive)
COC(=O)[C@@H]1c2cc3c(c(O)c2[C@@H](O)C[C@]1(C)O)C(=O)c1c(O)cc2c(c1C3=O)O[C@H]1O[C@@]2(C)[C@@H](O)[C@H](N(C)C)[C@H]1O ... -3.96% (inactive)
CSCC[C@@H](N)P(C)(=O)O ... 10.2% (inactive)

### Prompt I am curious: what activity change, negative = inhibition value has been reported for CN1CCN(c2ccc([N+](=O)[O-])c3[nH]o[n+](=O)c23)CC1 ?
### Response -7.81% (inactive)

### Prompt Given the molecule [N-]=[N+]=NCC(=O)c1c[nH]c(=O)[nH]c1=O , what is its reported activity change, negative = inhibition?
### Response 12.2% (inactive)

### Prompt Name the reported activity change, negative = inhibition value associated with the molecule c1ccc(CCN2CCCCCC2)nc1
### Response -1.84% (inactive)

### Prompt Item O=C(O)[C@@H](O)[C@@H](O)[C@@H]1[O][Sb][O][C@@H]1CO has what recorded activity change, negative = inhibition?
### Response 4.54% (inactive)

### Prompt Could you tell me which activity change, negative = inhibition is on file for O=C(O)CSCC(=O)O ?
### Response -1.42% (inactive)

### Prompt Look up activity change, negative = inhibition for this molecule: NC1(P(=O)(O)O)CCCCC1
### Response 11.8% (inactive)

### Prompt Given the entry Nc1ccc(S(=O)(=O)c2ccc(NCN3C(=O)NC(=O)C(=O)C3=O)cc2)cc1 , report its measured activity change, negative = inhibition.
### Response -11.3% (inactive)

### Prompt Suppose we examine the molecule O=C(O)CN1CCN(CC(=O)O)CC(=O)[O][Hg][O]C(=O)C1 ; what activity change, negative = inhibition value has been reported?
### Response 18.9% (inactive)

### Prompt // activity change, negative = inhibition lookup, key: COc1cc2ccccc2c2cc([N+](=O)[O-])oc12
### Response 3.54% (inactive)

### Prompt Requested field: activity change, negative = inhibition. Item: c1ccc2c([C@@H]3CCN(CCN4CCOCC4)C3)c[nH]c2c1
### Response -11.8% (inactive)

### Prompt What measured activity change, negative = inhibition goes with C[C@H](c1ccccc1)N1CCN([C@@H](C)c2ccccc2)CC1 ?
### Response -6.57% (inactive)

### Prompt May I ask what activity change, negative = inhibition has been recorded for Cn1c(=O)c2[nH]cnc2n(C)c1=O.[CH2-][C@H](Cc1cccc2cc(C(=O)O)c(=O)oc12)OC.[Hg].[OH-] ?
### Response -5.03% (inactive)

### Prompt Please give the measured activity change, negative = inhibition for this molecule: CC(=O)[C@@H]1CC[C@H]2[C@H]3CC[C@H]4C[C@@H](O)CC[C@]4(C)[C@@H]3CC[C@]12C
### Response 11.2% [at 38 µM] (inactive)

### Prompt # lookup: activity change, negative = inhibition of O=P(O)(O)CCP(=O)(O)O
### Response -10.9% (inactive)

### Prompt Recorded activity change, negative = inhibition for Cc1ccc(S(=O)(=O)O[C@H]2CN3CCC2CC3)cc1 , please?
### Response 10.6% (inactive)

Data provenance is PubChem BioAssay (NCATS).
